# subject_of_test: T1, human CD20 (human, UniProt P11836 1-297)
# T1 sequence (looked up): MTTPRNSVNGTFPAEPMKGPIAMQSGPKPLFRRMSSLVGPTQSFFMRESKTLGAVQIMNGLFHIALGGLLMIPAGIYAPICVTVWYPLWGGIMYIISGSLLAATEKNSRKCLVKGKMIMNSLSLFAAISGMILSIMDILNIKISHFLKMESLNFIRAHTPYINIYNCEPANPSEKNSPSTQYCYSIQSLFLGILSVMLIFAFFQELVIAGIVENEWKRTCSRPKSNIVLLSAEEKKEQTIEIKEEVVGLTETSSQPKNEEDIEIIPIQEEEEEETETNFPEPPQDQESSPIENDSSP
# assay_method_text: cell-based or functional assay
Consider the following binders; for each one, report its EC50 of CDC, WSU-DLCL-2 cells, 5% human complement.

Given the entry huCD20-4-SPDB-DM4 (antibody, human IgG1, kappa, V domains shown, DM4 linked through SPDB (disulfide), 3.5-4 DM4 molecules per antibody; sites not stated) VH: EVQVEESGGGLVQPGGSMRLSCVASGFSFNNYWMNWVRQSPGKGLEWVAEIRLKSNNYATHYVDSVKGRFTISRDDSKSSVYLQMNNLRAEDTGIYYCTGWDDYAMDHWGQGISVTVSS VL: DIQMTQSPSTMSTSVGDRVSVNCKASQNVGTNVAWYQQKPGKSPKGLIYSASFRYSGVPSRFTGSGSGTDFTLTIFNVQPDDLAEYFCQQYNNYPLTFGGGTKLEIKR , report its measured EC50 of CDC, WSU-DLCL-2 cells, 5% human complement.
~0.04 µg/mL

Given the entry huCD20-4 (antibody, human IgG1, kappa, V domains shown, Resurfaced antibody expressed in HEK-293T cells; also called humanized CD20-4; resurfaced CD20-4) VH: EVQVEESGGGLVQPGGSMRLSCVASGFSFNNYWMNWVRQSPGKGLEWVAEIRLKSNNYATHYVDSVKGRFTISRDDSKSSVYLQMNNLRAEDTGIYYCTGWDDYAMDHWGQGISVTVSS VL: DIQMTQSPSTMSTSVGDRVSVNCKASQNVGTNVAWYQQKPGKSPKGLIYSASFRYSGVPSRFTGSGSGTDFTLTIFNVQPDDLAEYFCQQYNNYPLTFGGGTKLEIKR , report its measured EC50 of CDC, WSU-DLCL-2 cells, 5% human complement.
~0.04 µg/mL

Given the entry huCD20-4-SMCC-DM1 (antibody, human IgG1, kappa, V domains shown, DM1 linked through SMCC (thioether), 3.5-4 DM1 molecules per antibody; sites not stated, also called huCD20-4-MCC-DM1) VH: EVQVEESGGGLVQPGGSMRLSCVASGFSFNNYWMNWVRQSPGKGLEWVAEIRLKSNNYATHYVDSVKGRFTISRDDSKSSVYLQMNNLRAEDTGIYYCTGWDDYAMDHWGQGISVTVSS VL: DIQMTQSPSTMSTSVGDRVSVNCKASQNVGTNVAWYQQKPGKSPKGLIYSASFRYSGVPSRFTGSGSGTDFTLTIFNVQPDDLAEYFCQQYNNYPLTFGGGTKLEIKR , report its measured EC50 of CDC, WSU-DLCL-2 cells, 5% human complement.
~0.04 µg/mL
